Test system: biotinyl-Leu-oxazolone
Assay: self-aminoacylation, catalytic enhancement (BLO) (fold over background); higher = more active; k-Seq, kA / k0A0; sequences stand for … in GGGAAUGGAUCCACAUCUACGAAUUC…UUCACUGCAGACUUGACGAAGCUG
Variants at the floor of the assay were thinned out.
Give self-aminoacylation for every item shown.
Just the number.

So for CCACACGUCAAGCAAACGGUC [Fam1B.1 aminoacylation ribozyme variant] , the logged self-aminoacylation turned out to be 0.809

So for AAGUUUGCUAAUAGUUGUAAG [Fam3.1 aminoacylation ribozyme variant] , the logged self-aminoacylation turned out to be 1.12

So for AAGUUUGCUAAAAGUCGCGAG [Fam3.1 aminoacylation ribozyme variant] , the logged self-aminoacylation turned out to be 2.1

So for CGAAACUUCAAGCAAUCGGUC [Fam1B.1 aminoacylation ribozyme variant] , the logged self-aminoacylation turned out to be 0.993

So for CUACUCGAAACAAUCGGUCUG [Fam1A.1 aminoacylation ribozyme variant] , the logged self-aminoacylation turned out to be 0.84

So for AAGUUUGCUAUUAGUCGAAAG [Fam3.1 aminoacylation ribozyme variant] , the logged self-aminoacylation turned out to be 0.914

So for CUACUUCAAACAAGGGGUCUG [Fam1A.1 aminoacylation ribozyme variant] , the logged self-aminoacylation turned out to be 0.748

So for CUUACCCUGGUCAUGGAGUGA [Fam2.1 aminoacylation ribozyme variant] , the logged self-aminoacylation turned out to be 3.74

So for CUACUUAAAAAAAUCGGUCUG [Fam1A.1 aminoacylation ribozyme variant] , the logged self-aminoacylation turned out to be 0.768

So for AUUACCCAGGUCACCGAGUGA [Fam2.1 aminoacylation ribozyme variant] , the logged self-aminoacylation turned out to be 10.2

So for ACGUUUGCUAAUAGUGGCAAG [Fam3.1 aminoacylation ribozyme variant] , the logged self-aminoacylation turned out to be 0.804

So for AUUAACCUGGUCAUCGAGAGA [Fam2.1 aminoacylation ribozyme variant] , the logged self-aminoacylation turned out to be 0.844

So for CUACAUCAAACCAUCGGUCUG [Fam1A.1 aminoacylation ribozyme variant] , the logged self-aminoacylation turned out to be 0.889

So for AUUCAUCUAGGUCAACGGGUG [Fam2.2 aminoacylation ribozyme variant] , the logged self-aminoacylation turned out to be 5.32

So for ACACCCUUCAAGCAAUCGGUC [Fam1B.1 aminoacylation ribozyme variant] , the logged self-aminoacylation turned out to be 0.984

So for AAGUUUGAUAAUAGUCUCAAG [Fam3.1 aminoacylation ribozyme variant] , the logged self-aminoacylation turned out to be 0.638

So for CCACACUCCAAGCAAUAGGUC [Fam1B.1 aminoacylation ribozyme variant] , the logged self-aminoacylation turned out to be 0.569

So for CCACACAUCAGGCAAUCGGUC [Fam1B.1 aminoacylation ribozyme variant] , the logged self-aminoacylation turned out to be 1.12

So for CAUCUUCAAACAAUCGGUCUG [Fam1A.1 aminoacylation ribozyme variant] , the logged self-aminoacylation turned out to be 1.96

So for CUACUCCAAACAAUCUGUCUG [Fam1A.1 aminoacylation ribozyme variant] , the logged self-aminoacylation turned out to be 0.716

So for CUACUUCAAACAAUCGCUCCG [Fam1A.1 aminoacylation ribozyme variant] , the logged self-aminoacylation turned out to be 0.775

So for AUUACCCUGGUAAACGAGUGA [Fam2.1 aminoacylation ribozyme variant] , the logged self-aminoacylation turned out to be 19.1
